Where these numbers come from: ChEMBL document CHEMBL1156679

assay_info: Cytotoxicity against New Zealand white rabbit neutrophils assessed as cell viability at 50 uM after 30 mins by trypan blue exclusion test
Assay type: cell-based, Oryctolagus cuniculus, Neutrophil
experimental_parameters: read-out: Activity
readout: viability at 0.5 h, 50 µM (%)
Numbers only here, please. The scale is %.

Sample records with viability at 0.5 h, 50 µM:
| cpd_smiles | observed_value |
| --- | --- |
| O=c1c(O)c(-c2ccc(O)c(O)c2)oc2cc(O)cc(O)c12 | 93 |
| COC(=O)Oc1ccc2oc(=O)c(-c3ccc4c(c3)OCO4)cc2c1 | 95.5 |
| COC(=O)Oc1ccc(-c2cc3cc(OC(=O)OC)ccc3oc2=O)cc1 | 92.5 |

Query block: Sample O=c1oc2ccc(O)cc2cc1-c1ccccc1O — what was its viability at 0.5 h, 50 µM?
Result block: 94.8
